# Test method notes: Steady-state pharmacokinetics of film-coated granules in pediatric subjects by age group
# Assay type: in vivo, human
# Run conditions: human, in vivo, oral, Week 2; 3 to <6 years old; post-adjustment, 3 sachets, 150 mg/60 mg; N 10; film-coated granules; read-out: AUC
Observation type: AUC (ng·h/mL)

INSERT INTO assay_data (substance_smiles, measurement_units, numeric_result) VALUES
  ('COC(=O)N[C@H](C(=O)N1CCC[C@H]1c1nc2cc([C@H]3CC[C@H](c4cc5nc([C@@H]6CCCN6C(=O)[C@@H](NC(=O)OC)[C@@H](C)OC)[nH]c5cc4F)N3c3cc(F)c(N4CCC(c5ccc(F)cc5)CC4)c(F)c3)c(F)cc2[nH]1)[C@@H](C)OC', 'ng·h/mL', 1660);

* * *

# Test method notes: Predicted PK exposures (Pop-PK AUC) in pediatric subjects
# Type: in vivo
# Design: concentration or dose not given beside the values
# Run conditions: human, in vivo, oral, Table 13a; 9 to <12 years old; N 10; predicted
# Excerpt: The predicted PK exposures (“Pop-PK AUC”) of Compound 1/Compound 2 based on all PK information collected in the study (including data from other study weeks) is shown in Table 13 and Table 13a.
Observation type: AUC (ng·h/mL)

INSERT INTO assay_data (substance_smiles, observation_type, numeric_result) VALUES
  ('COC(=O)N[C@H](C(=O)N1CCC[C@H]1c1nc2cc([C@H]3CC[C@H](c4cc5nc([C@@H]6CCCN6C(=O)[C@@H](NC(=O)OC)[C@@H](C)OC)[nH]c5cc4F)N3c3cc(F)c(N4CCC(c5ccc(F)cc5)CC4)c(F)c3)c(F)cc2[nH]1)[C@@H](C)OC', 'AUC', 2360),
  ('CC(C)(C)[C@@H]1NC(=O)O[C@@H]2CCC[C@H]2OC/C=C/C(F)(F)c2nc3ccccc3nc2O[C@@H]2C[C@@H](C(=O)N[C@]3(C(=O)NS(=O)(=O)C4(C)CC4)C[C@H]3C(F)F)N(C2)C1=O', 'AUC', 8120);

* * *

Reported Tmax is given for each of the following compounds.
# Test method notes: Single-dose crossover: bioavailability of Compound 1/Compound 2 mini-tablets
# Format: in vivo, human
# Run conditions: human, in vivo, oral, Regimen G: single dose mini-tablets 200 mg/120 mg, non-fasting; N = 14; median
Observation type: Tmax (h)

INSERT INTO results (substance_smiles, observation_type, numeric_result) VALUES
  ('COC(=O)N[C@H](C(=O)N1CCC[C@H]1c1nc2cc([C@H]3CC[C@H](c4cc5nc([C@@H]6CCCN6C(=O)[C@@H](NC(=O)OC)[C@@H](C)OC)[nH]c5cc4F)N3c3cc(F)c(N4CCC(c5ccc(F)cc5)CC4)c(F)c3)c(F)cc2[nH]1)[C@@H](C)OC', 'Tmax', 3),
  ('CC(C)(C)[C@@H]1NC(=O)O[C@@H]2CCC[C@H]2OC/C=C/C(F)(F)c2nc3ccccc3nc2O[C@@H]2C[C@@H](C(=O)N[C@]3(C(=O)NS(=O)(=O)C4(C)CC4)C[C@H]3C(F)F)N(C2)C1=O', 'Tmax', 1.75);

* * *

# Test method notes: Single-dose crossover: bioavailability of Compound 1/Compound 2 mini-tablets
# Format: in vivo, human
# Run conditions: human, in vivo, oral, Regimen F: single dose mini-tablets 200 mg/120 mg, fasting; N = 14; geometric mean
This listing pairs compounds with measured AUC(0-t).
Observation type: AUC(0-t) (ng·h/mL)

INSERT INTO measurements (compound, measurement_units, numeric_result) VALUES
  ('CC(C)(C)[C@@H]1NC(=O)O[C@@H]2CCC[C@H]2OC/C=C/C(F)(F)c2nc3ccccc3nc2O[C@@H]2C[C@@H](C(=O)N[C@]3(C(=O)NS(=O)(=O)C4(C)CC4)C[C@H]3C(F)F)N(C2)C1=O [Compound 1]', 'ng·h/mL', 428),
  ('COC(=O)N[C@H](C(=O)N1CCC[C@H]1c1nc2cc([C@H]3CC[C@H](c4cc5nc([C@@H]6CCCN6C(=O)[C@@H](NC(=O)OC)[C@@H](C)OC)[nH]c5cc4F)N3c3cc(F)c(N4CCC(c5ccc(F)cc5)CC4)c(F)c3)c(F)cc2[nH]1)[C@@H](C)OC [Compound 2]', 'ng·h/mL', 863);

* * *

# Test method notes: Pharmacokinetic properties in healthy subjects
# Format: in vivo, human
# Run conditions: human, in vivo, oral, median, single doses, healthy subjects; read-out: Tmax of granules
Observation type: Tmax

INSERT INTO results (substance_smiles, observation_type, result) VALUES
  ('COC(=O)N[C@H](C(=O)N1CCC[C@H]1c1nc2cc([C@H]3CC[C@H](c4cc5nc([C@@H]6CCCN6C(=O)[C@@H](NC(=O)OC)[C@@H](C)OC)[nH]c5cc4F)N3c3cc(F)c(N4CCC(c5ccc(F)cc5)CC4)c(F)c3)c(F)cc2[nH]1)[C@@H](C)OC', 'Tmax', '3 to 5 h'),
  ('CC(C)(C)[C@@H]1NC(=O)O[C@@H]2CCC[C@H]2OC/C=C/C(F)(F)c2nc3ccccc3nc2O[C@@H]2C[C@@H](C(=O)N[C@]3(C(=O)NS(=O)(=O)C4(C)CC4)C[C@H]3C(F)F)N(C2)C1=O', 'Tmax', '3 to 4 h');

* * *

# Test method notes: Pharmacokinetic properties in healthy subjects
# Format: in vivo, human
# Run conditions: human, in vivo, oral, median, single doses, healthy subjects; read-out: Tmax of tablets
Reported Tmax values are given for each entry in this list.
Observation type: Tmax (h)

INSERT INTO assay_data (substance_smiles, observation_type, measurement_units, numeric_result) VALUES
  ('CC(C)(C)[C@@H]1NC(=O)O[C@@H]2CCC[C@H]2OC/C=C/C(F)(F)c2nc3ccccc3nc2O[C@@H]2C[C@@H](C(=O)N[C@]3(C(=O)NS(=O)(=O)C4(C)CC4)C[C@H]3C(F)F)N(C2)C1=O', 'Tmax', 'h', 5),
  ('COC(=O)N[C@H](C(=O)N1CCC[C@H]1c1nc2cc([C@H]3CC[C@H](c4cc5nc([C@@H]6CCCN6C(=O)[C@@H](NC(=O)OC)[C@@H](C)OC)[nH]c5cc4F)N3c3cc(F)c(N4CCC(c5ccc(F)cc5)CC4)c(F)c3)c(F)cc2[nH]1)[C@@H](C)OC', 'Tmax', 'h', 5);

* * *

Each entry below carries its recorded Cmax.
# Test method notes: Single-dose crossover: bioavailability of Compound 1/Compound 2 mini-tablets
# Assay type: in vivo, human
# Run conditions: human, in vivo, oral, Regimen J: single dose two Compound 1 tablets (100 mg each) and three Compound 2 tablets (40 mg each), fasting; N = 14; geometric mean
Observation type: Cmax (ng/mL)

INSERT INTO measurements (compound, numeric_result) VALUES
  ('COC(=O)N[C@H](C(=O)N1CCC[C@H]1c1nc2cc([C@H]3CC[C@H](c4cc5nc([C@@H]6CCCN6C(=O)[C@@H](NC(=O)OC)[C@@H](C)OC)[nH]c5cc4F)N3c3cc(F)c(N4CCC(c5ccc(F)cc5)CC4)c(F)c3)c(F)cc2[nH]1)[C@@H](C)OC [Compound 2]', 139),
  ('CC(C)(C)[C@@H]1NC(=O)O[C@@H]2CCC[C@H]2OC/C=C/C(F)(F)c2nc3ccccc3nc2O[C@@H]2C[C@@H](C(=O)N[C@]3(C(=O)NS(=O)(=O)C4(C)CC4)C[C@H]3C(F)F)N(C2)C1=O [Compound 1]', 212);

* * *

# Test method notes: Phase 1 single-dose crossover: bioavailability and food effect of Compound 1/Compound 2 bilayer tablets
# Type: in vivo, human
# Run conditions: human, in vivo, oral, Regimen B: single dose bilayer tablets 300 mg/120 mg with moderate fat breakfast; N = 23; median
This section presents molecules with their documented Tmax values.
Observation type: Tmax (h)

INSERT INTO measurements (molecule, numeric_result) VALUES
  ('COC(=O)N[C@H](C(=O)N1CCC[C@H]1c1nc2cc([C@H]3CC[C@H](c4cc5nc([C@@H]6CCCN6C(=O)[C@@H](NC(=O)OC)[C@@H](C)OC)[nH]c5cc4F)N3c3cc(F)c(N4CCC(c5ccc(F)cc5)CC4)c(F)c3)c(F)cc2[nH]1)[C@@H](C)OC [Compound 2]', 5),
  ('CC(C)(C)[C@@H]1NC(=O)O[C@@H]2CCC[C@H]2OC/C=C/C(F)(F)c2nc3ccccc3nc2O[C@@H]2C[C@@H](C(=O)N[C@]3(C(=O)NS(=O)(=O)C4(C)CC4)C[C@H]3C(F)F)N(C2)C1=O [Compound 1]', 4);

* * *

# Test method notes: Single-dose crossover: bioavailability of Compound 1/Compound 2 mini-tablets
# Format: in vivo, human
# Run conditions: human, in vivo, oral, Regimen G: single dose mini-tablets 200 mg/120 mg, non-fasting; N = 14; harmonic mean
Observation type: half-life (h)

INSERT INTO results (molecule, observation_type, measurement_units, numeric_result) VALUES
  ('CC(C)(C)[C@@H]1NC(=O)O[C@@H]2CCC[C@H]2OC/C=C/C(F)(F)c2nc3ccccc3nc2O[C@@H]2C[C@@H](C(=O)N[C@]3(C(=O)NS(=O)(=O)C4(C)CC4)C[C@H]3C(F)F)N(C2)C1=O [Compound 1]', 'half-life', 'h', 6.42),
  ('COC(=O)N[C@H](C(=O)N1CCC[C@H]1c1nc2cc([C@H]3CC[C@H](c4cc5nc([C@@H]6CCCN6C(=O)[C@@H](NC(=O)OC)[C@@H](C)OC)[nH]c5cc4F)N3c3cc(F)c(N4CCC(c5ccc(F)cc5)CC4)c(F)c3)c(F)cc2[nH]1)[C@@H](C)OC [Compound 2]', 'half-life', 'h', 13.2);
